Where these numbers come from: ChEMBL document CHEMBL5149992

EXPERIMENT NOTES: in vitro
ASSAY CONDITIONS: human, liver microsomes
ENDPOINT: half-life at 60 h, 10 µM (h)

Example results:
INSERT INTO assay_data (smiles_code, measured_number) VALUES
  ('C=CCO[C@@H]1C[C@@H](c2nc3cccc(Cl)c3c(=O)n2-c2ccccc2)N(c2ncnc(N)c2C#N)C1', 0.03),
  ('C[C@H]1CC[C@@H](c2nc3cccc(Cl)c3c(=O)n2-c2cccc(F)c2)N1c1ncnc2[nH]cnc12', 4.44),
  ('N#Cc1c(N)ncnc1N1[C@H](c2nc3cccc(Cl)c3c(=O)n2-c2cccc(F)c2)C[C@@H]2CCCC[C@@H]21', 2.31),
  ('Nc1nc(N2CCC[C@H]2c2nc3cccc(Cl)c3c(=O)n2-c2ccccc2)c2nc[nH]c2n1', 1.06),
  ('N#Cc1c(N)ncnc1N1[C@H](c2nc3cccc(Cl)c3c(=O)n2-c2cccnc2)C[C@@H]2CCCC[C@@H]21', 4.28),
  ('C=C1C[C@@H](c2nc3cccc(Cl)c3c(=O)n2-c2ccccc2)N(c2ncnc(N)c2C#N)C1', 0.223),
  ('C[C@H]1CC[C@@H](c2nc3cccc(Cl)c3c(=O)n2N2CCOCC2)N1c1ncnc(N)c1C#N', 1.83),
  ('C[C@H]1CC[C@@H](c2nc3cccc(Cl)c3c(=O)n2-c2cccc(F)c2)N1c1ncnc(N)c1C#N', 2.22),
  ('N#Cc1c(N)ncnc1N1CC(F)(F)C[C@H]1c1nc2cccc(Cl)c2c(=O)n1-c1ccccc1', 2.82),
  ('C[C@H]1CC[C@@H](c2nc3cccc(Cl)c3c(=O)n2-c2cccnc2)N1c1ncnc(N)c1C#N', 1.72);

A: N#Cc1c(N)ncnc1N1CC2(CC2)C[C@H]1c1nc2cccc(Cl)c2c(=O)n1-c1ccccc1
B: N#Cc1c(N)ncnc1N1[C@H](c2nc3cccc(Cl)c3c(=O)n2N2CCOCC2)C[C@@H]2CCCC[C@@H]21
C: N#Cc1c(N)ncnc1N1[C@H](c2nc3cccc(F)c3c(=O)n2-c2cc(F)cc(F)c2)C[C@@H]2CCCC[C@@H]21
D: C[C@H]1CC[C@@H](c2nc3cccc(Cl)c3c(=O)n2-c2ccccc2)N1c1nc(N)nc2[nH]cnc12
### Prompt List by increasing half-life at 60 h, 10 µM. Provide the ranking by listing each label in its place in the requested order.
### Response A, B, D, C
